Assay Target: Human CD137 ECD (human)
Sequence (chain, as listed by the source limits assumed): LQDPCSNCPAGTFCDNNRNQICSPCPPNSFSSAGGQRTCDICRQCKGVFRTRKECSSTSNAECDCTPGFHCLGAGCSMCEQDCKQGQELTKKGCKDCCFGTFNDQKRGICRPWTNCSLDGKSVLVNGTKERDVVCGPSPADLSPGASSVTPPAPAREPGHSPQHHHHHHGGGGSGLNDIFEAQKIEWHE
Assay Text: SPR, vs parent H183/L072
Property Name: fold change of affinity (fold)

dBBDu183H V100iY / dBBDu072L (antibody, name in Kabat numbering, V domains shown) VH: QVQLVESGGGLVQPGRSLRLSCAASGFTFSNAWMHWVRQAPGKGLEWVAQIKDKGNAYAAYYAPSVKGRFTISRDDSKNSIYLQMNSLKTEDTAVYYCHYVHYASASTVLPAFGYDAWGQGTTVTVSS VL: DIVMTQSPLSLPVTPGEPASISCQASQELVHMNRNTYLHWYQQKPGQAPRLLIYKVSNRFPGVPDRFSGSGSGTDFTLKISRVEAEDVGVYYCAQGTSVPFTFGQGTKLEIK    0
dBBDu183H V95K / dBBDu072L (antibody, name in Kabat numbering, V domains shown) VH: QVQLVESGGGLVQPGRSLRLSCAASGFTFSNAWMHWVRQAPGKGLEWVAQIKDKGNAYAAYYAPSVKGRFTISRDDSKNSIYLQMNSLKTEDTAVYYCHYKHYASASTVLPAFGVDAWGQGTTVTVSS VL: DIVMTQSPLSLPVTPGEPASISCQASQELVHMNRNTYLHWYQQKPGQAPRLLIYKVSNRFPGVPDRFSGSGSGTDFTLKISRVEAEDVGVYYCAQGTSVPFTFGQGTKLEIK    0
dBBDu183H A100fY / dBBDu072L (antibody, name in Kabat numbering, V domains shown) VH: QVQLVESGGGLVQPGRSLRLSCAASGFTFSNAWMHWVRQAPGKGLEWVAQIKDKGNAYAAYYAPSVKGRFTISRDDSKNSIYLQMNSLKTEDTAVYYCHYVHYASASTVLPYFGVDAWGQGTTVTVSS VL: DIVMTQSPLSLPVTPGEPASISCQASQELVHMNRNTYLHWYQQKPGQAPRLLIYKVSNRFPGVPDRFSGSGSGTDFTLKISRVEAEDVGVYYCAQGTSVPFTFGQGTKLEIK    0
